- tested-target: wild type PKM2 (Homo sapiens, UniProt P14618)
- Sequence (P14618 whole entry): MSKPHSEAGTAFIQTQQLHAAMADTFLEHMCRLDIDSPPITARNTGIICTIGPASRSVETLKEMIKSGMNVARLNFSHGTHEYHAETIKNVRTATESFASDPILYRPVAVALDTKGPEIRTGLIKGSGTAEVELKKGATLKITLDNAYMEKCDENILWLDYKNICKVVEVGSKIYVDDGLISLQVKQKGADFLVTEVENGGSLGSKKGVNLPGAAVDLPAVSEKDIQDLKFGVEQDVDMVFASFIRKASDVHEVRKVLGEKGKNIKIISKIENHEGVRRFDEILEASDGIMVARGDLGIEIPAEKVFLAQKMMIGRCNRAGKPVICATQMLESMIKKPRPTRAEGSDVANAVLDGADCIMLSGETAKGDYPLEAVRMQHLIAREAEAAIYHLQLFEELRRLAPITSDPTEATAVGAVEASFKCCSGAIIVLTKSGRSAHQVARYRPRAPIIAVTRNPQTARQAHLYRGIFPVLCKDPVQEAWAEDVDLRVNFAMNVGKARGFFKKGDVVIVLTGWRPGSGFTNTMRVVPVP
- assay-remarks: PKM2 Assay (LDH/NADH-coupled, absorbance at 340 nm)
- Format: biochemical
- experimental-conditions: wild type PKM2 activation; 60 min preincubation at 25° C.; ADP 0.4 mM, PEP 0.11 mM; read-out: PKM2 WT AC50
Exercise: for every item that follows, state its recorded AC50.

The following compounds have reported results that may help.
1) Cn1c2nc(Cn3cnnc3)sc2c2cnn(Cc3cccc4[nH]ncc34)c(=O)c21 : 301 to 800 nM
2) Cn1c2nc(Cn3cncn3)sc2c2cnn(Cc3ccnc(N)n3)c(=O)c21 : > 800 nM
3) Cn1c2nc(Cc3cc[nH]n3)sc2c2cnn(Cc3ncsc3C(F)(F)F)c(=O)c21 : > 800 nM
4) Cn1c2nc(C(c3cccc4[nH]ncc34)S(=O)(=O)c3ccccc3)sc2c2cnn(Cc3cccc4[nH]ncc34)c(=O)c21 (centres unmarked) : > 800 nM
5) CC(=O)Nc1ccc(F)c(Cn2ncc3c4sc(Cn5ccnc5)nc4n(C)c3c2=O)n1 : > 800 nM
6) Cc1nc2c(s1)c1cnn(Cc3ccc([N+](=O)[O-])cc3)c(=O)c1n2C : > 800 nM
7) Cn1cc(C(N)=O)c(Cn2ncc3c4sc(Cc5cc[nH]n5)nc4n(C)c3c2=O)n1 : > 800 nM

# AC50 lookup, item Cn1c2nc(Cc3cc[nH]n3)sc2c2cnn(Cc3cccc(N)n3)c(=O)c21
< 300 nM

* * *

- tested-target: wild type PKM2 (Homo sapiens, UniProt P14618)
- assay-remarks: PKM2 Assay (LDH/NADH-coupled, absorbance at 340 nm)
- Format: biochemical
- experimental-conditions: wild type PKM2 activation; 60 min preincubation at 25° C.; ADP 0.4 mM, PEP 0.11 mM; read-out: PKM2 WT AC50
readout-name: AC50

1) CC(=O)Nc1ccc(F)c(Cn2ncc3c4sc(Cc5cnn(C)c5)nc4n(C)c3c2=O)n1 [Compound 127] : 301 to 800 nM
2) Cn1c2nc(Cc3cc[nH]n3)sc2c2cnn(Cc3cncs3)c(=O)c21 [Compound 70] : < 300 nM

For every item below, please supply its AC50.
1. Cc1nc2c(s1)c1cnn(Cc3cccc(F)n3)c(=O)c1n2C [Compound 9]
2. Cn1c2nc(Cc3ccc(C#N)cc3)sc2c2cnn(Cc3cccc4[nH]ncc34)c(=O)c21 [Compound 33]
3. Cn1c2nc(Cc3n[nH]cc3C(F)(F)F)sc2c2cnn(Cc3cccc4[nH]ncc34)c(=O)c21 [Compound 59]
4. CNCc1nc2c(s1)c1cnn(Cc3cccc4[nH]ncc34)c(=O)c1n2C [Compound 46]
5. C=CCn1ncc2c3sc(Cc4ccccn4)nc3n(C)c2c1=O [Compound 133]

1. 301 to 800 nM
2. > 800 nM
3. > 800 nM
4. < 300 nM
5. > 800 nM

For every item below, please supply its AC50.
1. Cn1c2nc(Cc3cc[nH]n3)sc2c2cnn(Cc3n[nH]c(=O)[nH]3)c(=O)c21 [Compound 131]
2. Cn1c2nc(Cc3cncnc3)sc2c2cnn(Cc3cccc4[nH]ncc34)c(=O)c21 [Compound 56]
3. CC(=O)c1cccc(Cn2ncc3c4sc([S+](C)[O-])nc4n(C)c3c2=O)c1 (centres unmarked) [Compound 32]

["301 to 800 nM", "> 800 nM", "< 300 nM"]

For every item below, please supply its AC50.
1. Cc1nc2c(s1)c1cnn(Cc3cccc4cn[nH]c34)c(=O)c1n2C [Compound 23]
2. Cn1c2nc([S+](C)[O-])sc2c2cnn(Cc3ccnc(N)n3)c(=O)c21 (centres unmarked) [Compound 36]
3. Cn1c2nc(Cc3cc[nH]n3)sc2c2cnn(Cc3csc(C(N)=O)n3)c(=O)c21 [Compound 69]
4. COc1cccc(Cn2ncc3c4sc(CC5CCCCC5)nc4n(C)c3c2=O)c1 [Compound 19]
5. Cn1c2nc(C(=O)c3cc[nH]n3)sc2c2cnn(Cc3cccc(N)n3)c(=O)c21 [Compound 123]
6. Cn1c2nc(C(O)c3ccccn3)sc2c2cnn(Cc3cccc4[nH]ncc34)c(=O)c21 (centres unmarked) [Compound 48]
7. Cn1ccc(Cn2ncc3c4sc(Cc5cscn5)nc4n(C)c3c2=O)n1 [Compound 96]

["301 to 800 nM", "301 to 800 nM", "< 300 nM", "> 800 nM", "< 300 nM", "> 800 nM", "< 300 nM"]
